target-or-system: lambda CI repressor (Bacteriophage lambda, UniProt P03034 1-237)
Sequence (P03034 whole entry): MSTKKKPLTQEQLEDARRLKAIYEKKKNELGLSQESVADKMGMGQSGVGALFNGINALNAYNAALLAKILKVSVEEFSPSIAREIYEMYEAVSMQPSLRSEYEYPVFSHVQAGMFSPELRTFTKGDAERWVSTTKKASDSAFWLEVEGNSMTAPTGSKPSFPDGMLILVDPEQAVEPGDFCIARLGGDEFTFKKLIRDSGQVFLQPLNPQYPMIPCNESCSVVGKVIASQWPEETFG
test-name: EMSA; apparent Kd; EMSA: 10 mM HEPES, 150 mM NaCl, pH 7.4; 50 nM DNA, 0.4-40 uM CI; 20 min at room temperature; 10% polyacrylamide gel, 1x TBE pH 8.3, SYBR Safe stain
condition-context: protein: recombinant; tags: His-tag, TEV cleavage site with linker (pET 29b+); chain copies: 2; label: none (SYBR Safe stain)
Measured Kd values are reported for all entries that follow.
I only need the number, in µM, no unit after it.

Sample records with Kd:
{"binder": "SOL2 (Stx2I OL2) (dsDNA) DNA 1: GGTTATTATGGTGTAATATTTTCTTACATGCAAGTGC DNA 2: GCACTTGCATGTAAGAAAATATTACACCATAATAACC", "quantity-measured": "Kd", "unit-spec": "µM", "result": 3.68}
{"binder": "SOR1 (Stx2I OR1) (dsDNA) DNA 1: GGTTATTATGGTTTCAGTTCAACCATAATGCAAGTGC DNA 2: GCACTTGCATTATGGTTGAACTGAAACCATAATAACC", "quantity-measured": "Kd", "unit-spec": "µM", "result": 7.27}
{"binder": "LOL3 (lambda OL3) (dsDNA) DNA 1: GGTTATTATGGTATCACCGCAGATGGTTTGCAAGTGC DNA 2: GCACTTGCAAACCATCTGCGGTGATACCATAATAACC", "quantity-measured": "Kd", "unit-spec": "µM", "result": 1.21}
{"binder": "LOL1 (lambda OL1) (dsDNA) DNA 1: GGTTATTATGGTATCACCGCCAGTGGTATGCAAGTGC DNA 2: GCACTTGCATACCACTGGCGGTGATACCATAATAACC", "quantity-measured": "Kd", "unit-spec": "µM", "result": 0.21}
{"binder": "SOR2 (Stx2I OR2) (dsDNA) DNA 1: GGTTATTATGGATGAGTACGATACTAAATGCAAGTGC DNA 2: GCACTTGCATTTAGTATCGTACTCATCCATAATAACC", "quantity-measured": "Kd", "unit-spec": "µM", "result": 7.67}
{"binder": "VOL2 (VT2-SA OL2) (dsDNA) DNA 1: GGTTATTATGGCAATACAATTTGTTCTATGCAAGTGC DNA 2: GCACTTGCATAGAACAAATTGTATTGCCATAATAACC", "quantity-measured": "Kd", "unit-spec": "µM", "result": 4.02}
{"binder": "VOR2 (VT2-SA OR2) (dsDNA) DNA 1: GGTTATTATGGATGCACAATGTGTATTTTGCAAGTGC DNA 2: GCACTTGCAAAATACACATTGTGCATCCATAATAACC", "quantity-measured": "Kd", "unit-spec": "µM", "result": 6.39}
{"binder": "LOR1 (lambda OR1) (dsDNA) DNA 1: GGTTATTATGGTACCTCTGGCGGTGATATGCAAGTGC DNA 2: GCACTTGCATATCACCGCCAGAGGTACCATAATAACC", "quantity-measured": "Kd", "unit-spec": "µM", "result": 0.35}
{"binder": "VOR1 (VT2-SA OR1) (dsDNA) DNA 1: GGTTATTATGGAAGTACATATTGTATTTTGCAAGTGC DNA 2: GCACTTGCAAAATACAATATGTACTTCCATAATAACC", "quantity-measured": "Kd", "unit-spec": "µM", "result": 5.15}

# context switch: different binder, same Kd
Request: // query Kd value for entry VOR3 (VT2-SA OR3) (dsDNA) DNA 1: GGTTATTATGGTATTACGCTCTGTACTGTGCAAGTGC DNA 2: GCACTTGCACAGTACAGAGCGTAATACCATAATAACC
Result: 4.41
